binders and their reported Ca ion level-increasing activity (FLIPR)
biological target: human OT7T175 (metastin receptor) (human, UniProt Q969F8 1-398); assay: cell-based or functional assay
Sequence (Q969F8 whole entry L364H): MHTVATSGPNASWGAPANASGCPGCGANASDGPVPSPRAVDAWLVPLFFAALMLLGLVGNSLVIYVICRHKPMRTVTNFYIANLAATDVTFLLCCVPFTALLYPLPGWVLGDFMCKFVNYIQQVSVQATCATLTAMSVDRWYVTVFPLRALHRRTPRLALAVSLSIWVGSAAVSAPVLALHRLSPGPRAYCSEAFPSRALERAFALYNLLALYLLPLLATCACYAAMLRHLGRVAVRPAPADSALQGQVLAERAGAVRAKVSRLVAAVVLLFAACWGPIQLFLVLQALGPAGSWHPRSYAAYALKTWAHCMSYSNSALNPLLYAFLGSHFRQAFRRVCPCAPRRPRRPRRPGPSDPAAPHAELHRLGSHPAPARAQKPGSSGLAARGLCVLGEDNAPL
Non-standard residues stand in square brackets, D forms with d. No end group written: not given here. Arg(Me) = CNC(=N)NCCC[C@H](N)C(=O)O

Below, 2 binders whose answers are already recorded.
[dN][dW]NSFGL[Arg(Me)]F-NH2 (N-terminus assumed; SMILES CNC(=N)NCCC[C@H](NC(=O)[C@H](CC(C)C)NC(=O)CNC(=O)[C@H](Cc1ccccc1)NC(=O)[C@H](CO)NC(=O)[C@H](CC(N)=O)NC(=O)[C@@H](Cc1c[nH]c2ccccc12)NC(=O)[C@H](N)CC(N)=O)C(=O)N[C@@H](Cc1ccccc1)C(N)=O, also called Compound No. 225) [des(1)-[D-Asn2,D-Trp3,Arg(Me)9]MS10]    1 x Metastin (1-54)
[dY]NWASFGL[Arg(Me)]F-NH2 (N-terminus assumed; SMILES CNC(=N)NCCC[C@H](NC(=O)[C@H](CC(C)C)NC(=O)CNC(=O)[C@H](Cc1ccccc1)NC(=O)[C@H](CO)NC(=O)[C@H](C)NC(=O)[C@H](Cc1c[nH]c2ccccc12)NC(=O)[C@H](CC(N)=O)NC(=O)[C@H](N)Cc1ccc(O)cc1)C(=O)N[C@@H](Cc1ccccc1)C(N)=O, also called Compound No. 210) [[D-Tyr1,Ala4,Arg(Me)9]MS10]    1 x Metastin (1-54)

Continue with the next binder.
What value of Ca ion level-increasing activity (FLIPR) has been reported for the following binder? YNWNSXGLRF (D-Tyr1; Cha6; Arg(Me)9; C-terminal amide, also called Compound No. 203) [[D-Tyr1,Cha6,Arg(Me)9]MS10]
10 x Metastin (1-54)

Where do these numbers come from? They come from patent US20090298765A1.
